Below, log10(IC50) values reported for UniProtKB P06493 across several publications.
Scale: log10; quantity: IC50; unit before log: nM

Task: Kindly state the measured log10(IC50) obtained for Cc1n[nH]c2c(Nc3ccc(C(=O)O)c(Cl)c3)ncnc12 with UniProtKB P06493.
Result: 4.40

Task: Give the reported log10(IC50) for CC(C)c1n[nH]c2c(NCc3ccccc3Br)ncnc12 (system: UniProtKB P06493).
Result: 3.85

Task: Record lookup: for UniProtKB P06493, what log10(IC50) belongs to CC(C)N1CCOc2c(F)cc(-c3nc(Nc4ccc(N5CCNC(=O)C5)cn4)ncc3F)cc21 ?
Result: 3.66

Task: Missing value: log10(IC50), UniProtKB P06493, entry CCCCNCc1cncc(-c2cnc3[nH]nc(-c4nc5c(COC)cccc5[nH]4)c3c2)c1 . Fill in?
Result: 0.83

Task: What is its log10(IC50) for UniProtKB P06493? Entry: O=C(c1cccc2[nH]c(-c3n[nH]c4ncc(-c5cncc6ccccc56)cc34)nc12)N1CCCC1
Result: 2.21

Task: Tell me reported log10(IC50) for CCN(CC)Cc1cccc2[nH]c(-c3n[nH]c4ncc(Br)cc34)nc12 , tested with UniProtKB P06493.
Result: 1.89

Task: log10(IC50) of CC(C)N1CCOc2c(F)cc(-c3nc(Nc4ccc(C5CCN(C)C5)cn4)ncc3F)cc21 (centres unmarked) on UniProtKB P06493?
Result: 2.35

Task: What value of log10(IC50) on UniProtKB P06493 does CC(C)=CCNc1ncnc2c(C(C)C)n[nH]c12 have?
Result: 3.65

Task: UniProtKB P06493 / log10(IC50) / Cc1n[nH]c2c(Nc3ccccc3)ncnc12 : value?
Result: 4.34

Task: # returns recorded log10(IC50) (system: UniProtKB P06493) for COc1ccc2nc(-c3n[nH]cc3C=Cc3cncc4ccccc34)[nH]c2c1
Result: 2.17

Task: Form entry - test system: UniProtKB P06493; read-out: log10(IC50); molecule: O=S(=O)(NCCN1CCOCC1)c1ccc(Nc2nc(OCC3CCCCC3)c3cn[nH]c3n2)cc1
Result: 2.92

Task: Lookup: log10(IC50) / UniProtKB P06493 / CCc1n[nH]c2c(NCc3cccc(Cl)c3)ncnc12
Result: 3.99

Task: Report log10(IC50) for COC1(c2c(C(=O)N(C)C)sc3cnc(Nc4ccc(N5CCNCC5)cn4)cc23)CCCC1 tested on UniProtKB P06493.
Result: 2.70
